viability, T/C values for the compounds below.
system: VA-ES-BJ tumor spheroid viability; assay: Anticancer human tumor VA-ES-BJ cell line growth inhibition; conditions: second compound 3.16 µM; first compound 0.949 µM; active compounds read low; spheroids with HUVEC and MSC;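 also: spheroids exposed to compounds for seven days; percent of DMSO vehicle control viability so 100% = untreated growth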

[[record]]
compound = "O=C(c1cc(Cc2n[nH]c(=O)c3ccccc23)ccc1F)N1CCN(C(=O)C2CC2)CC1 + Cn1nnc2c(C(N)=O)ncn2c1=O"
observation_type = "viability, T/C"
result = "96.8%"

[[record]]
compound = "Cc1sc2c(c1C)C(c1ccc(Cl)cc1)=NC(CC(=O)Nc1ccc(O)cc1)c1nnc(C)n1-2 (centres undefined) + Cn1nnc2c(C(N)=O)ncn2c1=O"
observation_type = "viability, T/C"
result = "19.9%"

[[record]]
compound = "Cn1ncnc1[C@H]1c2n[nH]c(=O)c3cc(F)cc(c23)N[C@@H]1c1ccc(F)cc1 + Cn1nnc2c(C(N)=O)ncn2c1=O"
observation_type = "viability, T/C"
result = "25.1%"


Consider the additional compound presented here.
Data request: I have this compound here, CNCc1ccc(-c2cc(-c3nc(-c4ccc(S(=O)(=O)C(C)C)cc4)cnc3N)on2)cc1 + Cn1nnc2c(C(N)=O)ncn2c1=O , and I need its recorded viability, T/C.
Data returned: 12.8%

----------
system: VA-ES-BJ tumor spheroid viability; assay: Anticancer human tumor VA-ES-BJ cell line growth inhibition; settings: second compound 94.9 pM; first compound 0.0316 µM; active compounds read low; spheroids with HUVEC and MSC;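 also: spheroids exposed to compounds for seven days; percent of DMSO vehicle control viability so 100% = untreated growth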
viability, T/C values for the molecules below.

Examples with answers:
[[record]]
molecule = "CC1COCCN1c1cc(-c2ccnn2C)c2ccnc(-c3ccn[nH]3)c2n1 (stereo unspecified) + COc1cc2c(cc1O)CCNC21CSC2c3c(OC(C)=O)c(C)c4c(c3C(COC1=O)N1C(O)C3Cc5cc(C)c(OC)c(O)c5C(C21)N3C)OCO4"
result = "26%"

[[record]]
molecule = "COc1ccc([C@@H](O)c2cc(-c3ncnc4cc(N5CCOCC5)ccc34)c(F)cc2Cl)nn1 + COc1cc2c(cc1O)CCNC21CSC2c3c(OC(C)=O)c(C)c4c(c3C(COC1=O)N1C(O)C3Cc5cc(C)c(OC)c(O)c5C(C21)N3C)OCO4"
result = "111%"

[[record]]
molecule = "Cc1cc(C)c(CNC(=O)c2cc(-c3ccc(CN4CCOCC4)cc3)cc3c2cnn3C2CCCC2)c(=O)[nH]1 + COc1cc2c(cc1O)CCNC21CSC2c3c(OC(C)=O)c(C)c4c(c3C(COC1=O)N1C(O)C3Cc5cc(C)c(OC)c(O)c5C(C21)N3C)OCO4"
result = "97.6%"

[[record]]
molecule = "[2H]c1nc(C)nc([2H])c1-c1cc(NC[C@@H](C)c2cccc3c(C(=O)NC)ccnc23)ncn1 + COc1cc2c(cc1O)CCNC21CSC2c3c(OC(C)=O)c(C)c4c(c3C(COC1=O)N1C(O)C3Cc5cc(C)c(OC)c(O)c5C(C21)N3C)OCO4"
result = "72.9%"

[[record]]
molecule = "CC(C)n1c(=O)n(C)c2cnc3cc(F)c(-c4ccc(OCCCN5CCCCC5)nc4)cc3c21 + COc1cc2c(cc1O)CCNC21CSC2c3c(OC(C)=O)c(C)c4c(c3C(COC1=O)N1C(O)C3Cc5cc(C)c(OC)c(O)c5C(C21)N3C)OCO4"
result = "50.3%"


Consider the additional molecule presented here.
Data request: I have this molecule here, COc1cc(C)[nH]c(=O)c1CN1CCc2c(Cl)cc(C(OC)C3COC3)c(Cl)c2C1=O (stereo unspecified) + COc1cc2c(cc1O)CCNC21CSC2c3c(OC(C)=O)c(C)c4c(c3C(COC1=O)N1C(O)C3Cc5cc(C)c(OC)c(O)c5C(C21)N3C)OCO4 , and I need its recorded viability, T/C.
Data returned: 66.9%

Origin of the recorded values: PubChem BioAssay AID1845217
